Values from ChEMBL document CHEMBL1127457

For each entry below, report its Rate (nM min-1 (nM of cytochrome P450)-1) value.
organism: Homo sapiens; conditions: Liver, Microsome
Description: Mean rate of metabolism of renin inhibitor by human liver microsome samples FGL-852 and EGF-426

Sample answers from the record:
CCCC[C@H](N[C@@H](Cc1ccccc1)C(=O)N1CCC(OCOC)CC1)C(=O)N[C@@H](CC1CCCCC1)[C@@H](O)C[C@H](C(=O)NCC(C)(C)N1CCOCC1)C(C)C | 4.32
CCCC[C@H](N[C@@H](Cc1ccccc1)C(=O)N1CCC(OCOC)CC1)C(=O)N[C@@H](CC1CCCCC1)[C@@H](O)C[C@H](C(=O)NCCCN1CCOCC1)C(C)C | 4.14
CCCC[C@H](N[C@@H](Cc1ccccc1)C(=O)N1CCC(OCOC)CC1)C(=O)N[C@@H](CC1CCCCC1)[C@@H](O)C[C@H](C(=O)NCCN1CCOCC1)C(C)C | 3.71
CCCC[C@H](N[C@@H](Cc1ccccc1)C(=O)N1CCC(OCOC)CC1)C(=O)N[C@@H](CC1CCCCC1)[C@@H](O)C[C@H](C(=O)NCc1ccccn1)C(C)C | 3.52
CCCC[C@H](N[C@@H](Cc1ccccc1)C(=O)N1CCC(OCOC)CC1)C(=O)N[C@@H](CC1CCCCC1)[C@@H](O)C[C@H](C(=O)NCc1cccnc1)C(C)C | 2.27
CCCC[C@H](O[C@@H](Cc1ccccc1)C(=O)N1CCC(OCOC)CC1)C(=O)N[C@@H](CC1CCCCC1)[C@@H](O)C[C@H](C(=O)NCCCN1CCOCC1)C(C)C | 4.26
CCCC[C@H](N[C@@H](Cc1ccccc1)C(=O)N1CCC(OCOC)CC1)C(=O)N[C@@H](CC1CCCCC1)[C@@H](O)C[C@H](C(=O)NCCN1CCCCC1)C(C)C | 4.52

As a next step, examine the compound that follows.
I have this compound here, `CCCC[C@H](N[C@@H](Cc1ccccc1)C(=O)N1CCC(OCOC)CC1)C(=O)N[C@@H](CC1CCCCC1)[C@@H](O)C[C@H](C(=O)NCc1ccncc1)C(C)C` , and I need its recorded Rate (nM min-1 (nM of cytochrome P450)-1).
0.78

----------
experiment: Average area under curve for the compound at 1 mg/kg dose after intravenous administration to rat; conditions: in vivo
// label = true (1) if AUC is not less than 200 ng·h/mL, otherwise false (0)

Worked examples, 5 compounds total:
CCCC[C@H](N[C@@H](Cc1ccccc1)C(=O)N1CCC(OCOC)CC1)C(=O)N[C@@H](CC1CCCCC1)[C@@H](O)C[C@H](C(=O)NCCCN1CCOCC1)C(C)C | false (0)
CCCC[C@H](N[C@@H](Cc1ccccc1)C(=O)N1CCC(OCOC)CC1)C(=O)N[C@@H](CC1CCCCC1)[C@@H](O)C[C@H](C(=O)NCc1ccccc1)C(C)C | true (1)
CCCC[C@H](N[C@@H](Cc1ccccc1)C(=O)N1CCC(OCOC)CC1)C(=O)N[C@@H](CC1CCCCC1)[C@@H](O)C[C@H](C(=O)NCCN1CCCCC1)C(C)C | true (1)
CCCC[C@H](N[C@@H](Cc1ccccc1)C(=O)N1CCC(OCOC)CC1)C(=O)N[C@@H](CC1CCCCC1)[C@@H](O)C[C@H](C(=O)NCCN1CCCC1)C(C)C | true (1)
CCCC[C@H](N[C@@H](Cc1ccccc1)C(=O)N1CCC(OCOC)CC1)C(=O)N[C@@H](CC1CCCCC1)[C@@H](O)C[C@H](C(=O)NCCC[N+]1([O-])CCOCC1)C(C)C | true (1)

As a next step, examine the compound that follows.
Kindly determine if AUC recorded for `CCCC[C@H](N[C@@H](Cc1ccccc1)C(=O)N1CCC(OCOC)CC1)C(=O)N[C@@H](CC1CCCCC1)[C@@H](O)C[C@H](C(=O)NCc1cccnc1)C(C)C` is above or exactly 200 ng·h/mL.
true (1)

----------
experiment: Average peak plasma concentration of compound after 10 mg/kg intraduodenal administration to Ferret; conditions: plasma
Field: Cmax. Provide a value for each of the compounds that follow.
Answers are plain numbers, in ng/mL.

Sample records with Cmax:
CCCC[C@H](N[C@@H](Cc1ccccc1)C(=O)N1CCC(OCOC)CC1)C(=O)N[C@@H](CC1CCCCC1)[C@@H](O)C[C@H](C(=O)NCCC[N+]1([O-])CCOCC1)C(C)C | 1180
CCCC[C@H](N[C@@H](Cc1ccccc1)C(=O)N1CCC(OCOC)CC1)C(=O)N[C@@H](CC1CCCCC1)[C@@H](O)C[C@H](C(=O)NCCNc1noc(N)n1)C(C)C | 110
CCCC[C@H](N[C@@H](Cc1ccccc1)C(=O)N1CCC(OCOC)CC1)C(=O)N[C@@H](CC1CCCCC1)[C@@H](O)C[C@H](C(=O)NCCN1CCCC1)C(C)C | 5500

# context switch: different compound, same Cmax
Which Cmax value is on record for `CCCC[C@H](N[C@@H](Cc1ccccc1)C(=O)N1CCC(OCOC)CC1)C(=O)N[C@@H](CC1CCCCC1)[C@@H](O)C[C@H](C(=O)NCC(C)(C)N1CCOCC1)C(C)C` ?
11500

----------
Assignment: determine reported pIC50 for the given compounds.
Target: Renin (Homo sapiens)
Sequence (P00797 whole entry): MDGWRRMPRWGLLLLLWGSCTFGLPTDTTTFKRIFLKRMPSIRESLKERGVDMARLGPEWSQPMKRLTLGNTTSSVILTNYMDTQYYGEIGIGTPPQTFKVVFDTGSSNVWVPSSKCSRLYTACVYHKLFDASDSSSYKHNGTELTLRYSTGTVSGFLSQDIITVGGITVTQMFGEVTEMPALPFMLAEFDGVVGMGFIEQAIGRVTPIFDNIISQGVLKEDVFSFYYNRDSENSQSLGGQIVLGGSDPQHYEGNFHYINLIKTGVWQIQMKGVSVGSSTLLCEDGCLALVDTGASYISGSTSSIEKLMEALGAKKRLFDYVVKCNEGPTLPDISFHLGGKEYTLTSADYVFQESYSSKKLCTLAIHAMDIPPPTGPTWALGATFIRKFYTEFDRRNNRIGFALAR
Experiment: Tested in vitro for its ability to inhibit the human plasma renin
Format: cell-free
Numbers only, as −log10 of the molar value.

The following compounds have reported results that may help.
CCCC[C@H](N[C@@H](Cc1ccccc1)C(=O)N1CCC(OCOC)CC1)C(=O)N[C@@H](CC1CCCCC1)[C@@H](O)C[C@H](C(=O)NCC(C)(C)N)C(C)C | 7.92
CCCC[C@H](N[C@@H](Cc1ccccc1)C(=O)N1CCC(OCOC)CC1)C(=O)N[C@@H](CC1CCCCC1)[C@@H](O)C[C@H](C(=O)NCc1ccccc1)C(C)C | 7.85
CCCC[C@H](N[C@@H](Cc1ccccc1)C(=O)N1CCC(OCOC)CC1)C(=O)N[C@@H](CC1CCCCC1)[C@@H](O)C[C@H](C(=O)NCCNc1noc(N)n1)C(C)C | 8.42

Quick request: pIC50 for each listed item, please.
1. CCCC[C@H](N[C@@H](Cc1ccccc1)C(=O)N1CCC(OCOC)CC1)C(=O)N[C@@H](CC1CCCCC1)[C@@H](O)C[C@H](C(=O)NCCC(=O)OCc1ccccc1)C(C)C
2. CCCC[C@H](N[C@@H](Cc1ccccc1)C(=O)N1CCC(OCOC)CC1)C(=O)N[C@@H](CC1CCCCC1)[C@@H](O)C[C@H](C(=O)NCCN1CCCC1)C(C)C
3. CCCC[C@H](N[C@@H](Cc1ccccc1)C(=O)N1CCC(OCOC)CC1)C(=O)N[C@@H](CC1CCCCC1)[C@@H](O)C[C@H](C(=O)NCCNC(=O)OCc1ccccc1)C(C)C
4. CCCC[C@H](N[C@@H](Cc1ccccc1)C(=O)N1CCC(OCOC)CC1)C(=O)N[C@@H](CC1CCCCC1)[C@@H](O)C[C@H](C(=O)NCCN1CCOCC1)C(C)C

1. 7.64
2. 7.89
3. 7.77
4. 8.41

Provide pIC50 values for the following items, in order.
1. CCCC[C@H](N[C@@H](Cc1ccccc1)C(=O)N1CCC(OCOC)CC1)C(=O)N[C@@H](CC1CCCCC1)[C@@H](O)C[C@H](C(=O)NCCCN)C(C)C
2. CCCC[C@H](N[C@@H](Cc1ccccc1)C(=O)N1CCC(OCOC)CC1)C(=O)N[C@@H](CC1CCCCC1)[C@@H](O)C[C@H](C(=O)NCCN1CCCCC1)C(C)C
3. CCCC[C@H](N[C@@H](Cc1ccccc1)C(=O)N1CCC(OCOC)CC1)C(=O)N[C@@H](CC1CCCCC1)[C@@H](O)C[C@H](C(=O)NCCC1CCCCC1)C(C)C
4. CCCC[C@H](N[C@@H](Cc1ccccc1)C(=O)N1CCC(OCOC)CC1)C(=O)N[C@@H](CC1CCCCC1)[C@@H](O)C[C@H](C(=O)NCC[N+]1([O-])CCOCC1)C(C)C
5. CCCC[C@H](N[C@@H](Cc1ccccc1)C(=O)N1CCC(OCOC)CC1)C(=O)N[C@@H](CC1CCCCC1)[C@@H](O)C[C@H](C(=O)NCc1ccncc1)C(C)C
6. CCCC[C@H](N[C@@H](Cc1ccccc1)C(=O)N1CCC(OCOC)CC1)C(=O)N[C@@H](CC1CCCCC1)[C@@H](O)C[C@H](C(=O)NCCC(=O)O)C(C)C
7. CCCC[C@H](N[C@@H](Cc1ccccc1)C(=O)N1CCC(OCOC)CC1)C(=O)N[C@@H](CC1CCCCC1)[C@@H](O)C[C@H](C(=O)NCC(=O)OCc1ccccc1)C(C)C
8. CCCC[C@H](N[C@@H](Cc1ccccc1)C(=O)N1CCC(OCOC)CC1)C(=O)N[C@@H](CC1CCCCC1)[C@@H](O)C[C@H](C(=O)NCCNc1n[nH]c(N)n1)C(C)C

1: 8.02; 2: 7.85; 3: 7.40; 4: 8.08; 5: 8.11; 6: 8.08; 7: 7.68; 8: 8.21

Hey, can you go through the list below and give me pIC50 for every item?
1. CCCC[C@H](N[C@@H](Cc1ccccc1)C(=O)N1CCC(OCOC)CC1)C(=O)N[C@@H](CC1CCCCC1)[C@@H](O)C[C@H](C(=O)NCCNCCO)C(C)C
2. CCCC[C@H](N[C@@H](Cc1ccccc1)C(=O)N1CCC(OCOC)CC1)C(=O)N[C@@H](CC1CCCCC1)[C@@H](O)C[C@H](C(=O)NCCc1ccccn1)C(C)C
3. CCCC[C@H](N[C@@H](Cc1ccccc1)C(=O)N1CCC(OCOC)CC1)C(=O)N[C@@H](CC1CCCCC1)[C@@H](O)C[C@H](C(=O)NCc1ccccn1)C(C)C
4. CCCC[C@H](N[C@@H](Cc1ccccc1)C(=O)N1CCC(OCOC)CC1)C(=O)N[C@@H](CC1CCCCC1)[C@@H](O)C[C@H](C(=O)NCC(C)(C)NCCO)C(C)C
5. CCCC[C@H](N[C@@H](Cc1ccccc1)C(=O)N1CCC(OCOC)CC1)C(=O)N[C@@H](CC1CCCCC1)[C@@H](O)C[C@H](C(=O)NCCCNCCO)C(C)C
6. CCCC[C@H](N[C@@H](Cc1ccccc1)C(=O)N1CCC(OCOC)CC1)C(=O)N[C@@H](CC1CCCCC1)[C@@H](O)C[C@H](C(=O)NCC(C)(C)N1CCOCC1)C(C)C
7. CCCC[C@H](N[C@@H](Cc1ccccc1)C(=O)N1CCC(OCOC)CC1)C(=O)N[C@@H](CC1CCCCC1)[C@@H](O)C[C@H](C(=O)NCCC[N+]1([O-])CCOCC1)C(C)C

[7.96, 8.03, 7.92, 8.20, 8.10, 8.04, 8.37]

What measured pIC50 goes with `CCCC[C@H](N[C@@H](Cc1ccccc1)C(=O)N1CCC(OCOC)CC1)C(=O)N[C@@H](CC1CCCCC1)[C@@H](O)C[C@H](C(=O)NCCN)C(C)C` ?
8.01
